target: BCL2 D103Y (Homo sapiens, UniProt P10415, D103Y); assay: TR-FRET competitive binding assay, BCL2 D103Y; conditions: Ki determined from IC50, read-out: TR_FRET EKI_Bcl2 D103Y
Lab note: anything with Ki below 0.2 nM is marked true; values at 0.2 nM or higher are marked false.

Exercise: # TODO verify Ki < 0.2 nM strictly for this compound: Cc1c(N(C(=O)c2cc(-c3cc4c(cc3C(=O)N3Cc5ccccc5C[C@H]3C)CN(C(=O)Cc3ccc(CCN5CCC(F)(F)CC5)cc3)CC4)n(C)c2C)c2ccc(O)cc2)cc(C#N)n1C
Key: false

Exercise: And the next one, Cc1c(C(=O)N(c2ccccc2)c2cc(F)cc(C#N)c2)cc(-c2cc3c(cc2C(=O)N2Cc4ccccc4C[C@H]2C)CN(C(=O)Cc2ccc(OCCN4CCOCC4)cc2F)CC3)n1C ?
Key: false

Exercise: For Cc1c(N(C(=O)c2cc(-c3cc4c(cc3C(=O)N3Cc5ccccc5C[C@H]3CN3CCC[C@@H](C)C3)CN(C(=O)Cc3ccc(OCCN5CCOCC5)cc3F)CC4)n(C)c2C)c2ccc(O)cc2)cc(C#N)n1C then?
Key: false

Exercise: Cc1c(N(C(=O)c2cc(-c3cc4c(cc3C(=O)N3Cc5ccccc5C[C@H]3CN3CCCCC3)CN(C(=O)C(F)(F)c3ccc(OCCN5CCOCC5)cc3)CC4)n(C)c2C)c2ccc(O)cc2)cc(C#N)n1C ?
Key: true

Exercise: Do the same for Cc1c(N(C(=O)c2cc(-c3cc4c(cc3C(=O)N3Cc5ccccc5C[C@H]3CN3CCCCC3)CN(C(=O)Cc3ccc(OCCN5CCOCC5)cc3F)CC4)n(C)c2C)c2ccc(O)cc2)cc(C#N)n1C [Example 229] please
Key: true

----------
biological target: BCLXL WT (Homo sapiens (Human)); assay: TR-FRET competitive binding assay, BCLXL WT; details: BCLXL WT; Ki determined from IC50; read-out: TR_FRET EKI BclxL
Sequence (Q07817 other isoform, or with tags, fused parts or gaps): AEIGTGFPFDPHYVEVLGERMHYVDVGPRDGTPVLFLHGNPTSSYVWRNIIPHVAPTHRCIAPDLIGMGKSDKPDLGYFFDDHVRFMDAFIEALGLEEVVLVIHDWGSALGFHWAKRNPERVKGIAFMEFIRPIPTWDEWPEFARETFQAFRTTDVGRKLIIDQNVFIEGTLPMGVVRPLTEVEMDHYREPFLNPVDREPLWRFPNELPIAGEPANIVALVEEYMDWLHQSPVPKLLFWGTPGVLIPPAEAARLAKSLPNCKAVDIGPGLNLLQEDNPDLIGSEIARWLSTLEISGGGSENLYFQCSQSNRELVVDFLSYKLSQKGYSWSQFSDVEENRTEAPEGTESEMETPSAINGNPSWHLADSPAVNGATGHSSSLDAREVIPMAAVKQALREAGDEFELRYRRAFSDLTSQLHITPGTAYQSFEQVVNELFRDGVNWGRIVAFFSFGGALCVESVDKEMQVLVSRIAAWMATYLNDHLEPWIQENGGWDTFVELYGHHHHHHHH
result-type: Ki (nM)
The reply should contain only the number, in nM.

Exercise: Entry Cc1c(N(C(=O)c2cc(-c3cc4c(cc3C(=O)N3Cc5ccccc5C[C@H]3CN3CCCCC3)CN(C(=O)Cc3ccc(OCCN(C)CCF)cc3F)CC4)n(C)c2C)c2ccc(O)cc2)cc(C#N)n1C [Example 134] : reported Ki = ?
Key: 2.6

Exercise: What would you report for Cc1c(C(=O)N(c2ccc(O)cc2)c2cc(C#N)n(C(F)F)c2C)cc(-c2cc3c(cc2C(=O)N2Cc4ccccc4C[C@H]2CN2CCCCC2)CN(C(=O)Cc2ccc(OCCN4CCN(C)CC4)cc2F)CC3)n1C [Example 160] ?
Key: 1.5

Exercise: Would you mind doing Cc1c(N(C(=O)c2cc(-c3cc4c(cc3C(=O)N3Cc5ccccc5C[C@H]3CN3CCCCCC3)CN(C(=O)Cc3ccc(OCCN5CCOCC5)cc3F)CC4)n(C)c2C)c2ccc(O)cc2)cc(C#N)n1C [Example 96] as well?
Key: 2.4

Exercise: Please do the same for COc1cc(OCCN2CCOCC2)ccc1CC(=O)N1CCc2cc(-c3cc(C(=O)N(c4ccc(O)cc4)c4cc(C#N)n(C)c4C)c(C)n3C)c(C(=O)N3Cc4ccccc4C[C@H]3CN3CCCCC3)cc2C1 [Example 114] as well.
Key: 4.3

Exercise: Next compound: Cc1c(N(C(=O)c2cc(-c3cc4c(cc3C(=O)N3Cc5ccccc5C[C@H]3CN3CCCCC3)CN(C(=O)Cc3ccc(CCN5CCC(F)(F)CC5)cc3)CC4)n(C)c2C)c2ccc(O)cc2)cc(C#N)n1C [Example 131]
Key: 8.7
